src = ChEMBL document CHEMBL1126696

- systemUnderTest: Squalene synthase (Rattus norvegicus)
- Sequence (Q02769 whole entry): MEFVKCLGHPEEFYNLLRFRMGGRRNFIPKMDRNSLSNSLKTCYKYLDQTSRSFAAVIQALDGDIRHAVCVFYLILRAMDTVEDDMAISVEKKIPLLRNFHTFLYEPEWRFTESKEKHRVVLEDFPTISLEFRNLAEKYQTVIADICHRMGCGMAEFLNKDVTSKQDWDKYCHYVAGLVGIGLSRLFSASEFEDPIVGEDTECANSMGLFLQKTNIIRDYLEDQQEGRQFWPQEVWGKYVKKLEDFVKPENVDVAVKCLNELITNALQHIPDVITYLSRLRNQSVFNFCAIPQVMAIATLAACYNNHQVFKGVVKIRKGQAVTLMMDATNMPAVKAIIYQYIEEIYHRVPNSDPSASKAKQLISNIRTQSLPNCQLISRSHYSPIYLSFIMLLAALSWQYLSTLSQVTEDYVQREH
- methodDescription: Tested for inhibitory activity against squalene synthetase in the presence of inorganic pyrophosphate (PPi)
experimentalReadout: IC50 (nM)
Numbers only, in nM.

{"columns": ["structureString", "systemUnderTest", "reportedResult"],
 "data": [
  ["CC(C)=CCC/C(C)=C/CC/C(C)=C/CNCc1cccnc1", "Squalene synthase (Rattus norvegicus)", 4]
]}

Q: Look up and report measured IC50 for this entry: CC(C)=CCC/C(C)=C/CC/C(C)=C/CNCc1ccccc1
Result: 10

----------
- systemUnderTest: UniProt:Q02769
- methodDescription: Inhibitory activity against squalene synthetase in rat liver microsomes
- Set-up: species or system Microsome
pIC50: −log10 of the molar value.
// 0 strictly below 5 in pIC50; 1 otherwise

Known results for molecules:
{"columns": ["molecule", "category"],
 "data": [
  ["CC(C)CCCC(C)CCCC(C)CCNCc1cccnc1 (stereo not drawn)", 1],
  ["CC(C)=CCC/C(C)=C/CC/C(C)=C/CNCc1ccccc1", 1],
  ["CC(C)=CCC/C(C)=C/CCC(C)CNCc1cccnc1 (stereo not drawn)", 0]
]}

Q: hey, is pIC50 for this one >= 5? CC(C)=CCC/C(C)=C/CC/C(C)=C/COCc1cccnc1
Result: 0

Q: Say whether CCNC/C=C(\C)CC/C=C(\C)CCC=C(C)C shows pIC50 of 5 or more.
Result: 1

Q: State whether the measured pIC50 reaches 5, counting equality as reaching it, for CC(C)=CCC/C(C)=C/CC/C(C)=C/CNC/C=C(\C)CC/C=C(\C)CCC=C(C)C
Result: 0

Q: Would you say CC(C)=CCC/C(C)=C/CC/C(C)=C/CNCc1ccncc1 shows pIC50 at minimum 5?
Result: 1

Q: hey, is pIC50 for this one >= 5? CCN(C/C=C(\C)CC/C=C(\C)CCC=C(C)C)Cc1cccnc1
Result: 1

----------
Please go through the items and note down their log10 IC50.
- systemUnderTest: Squalene synthase (Rattus norvegicus, UniProt Q02769)
- Sequence (Q02769 whole entry): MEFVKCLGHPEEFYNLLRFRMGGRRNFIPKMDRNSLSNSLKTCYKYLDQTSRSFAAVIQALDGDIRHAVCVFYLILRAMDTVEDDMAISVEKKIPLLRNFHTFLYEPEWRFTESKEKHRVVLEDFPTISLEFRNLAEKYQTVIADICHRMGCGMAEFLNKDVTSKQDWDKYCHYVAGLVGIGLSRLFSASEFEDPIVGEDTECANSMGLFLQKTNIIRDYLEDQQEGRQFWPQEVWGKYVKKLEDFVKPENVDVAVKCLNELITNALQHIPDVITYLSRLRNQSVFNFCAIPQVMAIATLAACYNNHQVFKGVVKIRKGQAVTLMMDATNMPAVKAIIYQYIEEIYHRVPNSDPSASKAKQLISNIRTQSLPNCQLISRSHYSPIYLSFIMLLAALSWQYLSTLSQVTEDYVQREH
- methodDescription: Inhibitory activity against squalene synthetase in rat liver microsomes
- Set-up: species or system Microsome
Short version: log10 scale, IC50, µM.

// below: answered compounds
{"columns": ["compound", "log10 IC50"],
 "data": [
  ["CC(C)=CCC/C(C)=C/CC/C(C)=C/CNCC(C)CC/C=C(\\C)CCC=C(C)C (stereo not given)", 0.00],
  ["CCN(C/C=C(\\C)CC/C=C(\\C)CCC=C(C)C)C/C=C(\\C)CC/C=C(\\C)CCC=C(C)C", 2.26],
  ["CC(C)=CCC/C(C)=C/CNCc1cccnc1", 1.36],
  ["CC(C)=CCC/C(C)=C/CC/C(C)=C/CNCc1cccnc1", -1.30]
]}

Kindly review the next compound as well.
Q: For the compound CC(C)=CCC/C(C)=C/CC/C(C)=C/COC/C=C(\C)CC/C=C(\C)CCC=C(C)C , give its reported log10 IC50.
Result: 2.92
